System: K-562 cells
Procedure details: Cell lysis efficiency and cDNA yield in bulk (lysis and RT in one mix, PCR, BioAnalyzer/Qubit)
Type: cell-based
Experimental parameters: single detergent at 0.1%, cDNA yield divided by cDNA yield with 0.1% NP40 of the same Part
Where a name gives a salt, the structure may show the parent alone.
Below: a set of entries, each annotated with reported Relative lysis efficiency.
Measurement type: Relative lysis efficiency

* CCCCCCCCCCCCN(C)CC(=O)O [N-Laurylsarcosine] | 0.35
* CCCCCCCCS[C@@H]1O[C@H](CO)[C@@H](O)[C@H](O)[C@H]1O [n-octyl-β-D-thioglucopyranoside (OTG), n-octyl-β-D-thioglucopyranoside] | 0.31
* CCCCCCCCCc1ccc(OCCOCCOCCOCCOCCOCCOCCOCCOCCO)cc1 [Igepal CO630] | 0.98
* C[C@H](CCC(=O)NCCC[N+](C)(C)CCCS(=O)(=O)[O-])[C@H]1CC[C@H]2[C@@H]3[C@H](O)C[C@@H]4C[C@H](O)CC[C@]4(C)[C@H]3C[C@H](O)[C@]12C [CHAPS] | 0.43
* CCCCCCCCO[C@@H]1O[C@H](CO)[C@@H](O)[C@H](O)[C@H]1O [n-octyl-β-D-glucopyranoside (OBG), n-octyl-β-D-glucopyranoside] | 0.36
* C[C@@H]1CC[C@@]2(OC1)O[C@H]1[C@@H](O)[C@H]3[C@@H]4CC[C@H]5C[C@@H](O[C@@H]6O[C@H](CO)[C@H](O[C@@H]7O[C@H](CO)[C@@H](O)[C@H](O[C@@H]8OC[C@@H](O)[C@H](O)[C@H]8O)[C@H]7O[C@@H]7O[C@H](CO)[C@H](O)[C@H](O[C@@H]8O[C@H](CO)[C@@H](O)[C@H](O)[C@H]8O)[C@H]7O)[C@H](O)[C@H]6O)[C@H](O)C[C@]5(C)[C@H]4CC[C@]3(C)[C@H]1[C@@H]2C [Digitonin] | 0.85
* C[C@H](CCC(=O)O)[C@H]1CC[C@H]2[C@@H]3CC[C@@H]4C[C@H](O)CC[C@]4(C)[C@H]3C[C@H](O)[C@]12C [Deoxycholic acid Na salt] | 0.24
